Test system: fibroblast line (L929)
EXPERIMENT NOTES: Cytotoxicity assay in mammalian cells (MTT), fibroblasts, 72 h
Type: cell-based
MEASURED PARAMETER: CC50 (µM)

CCOC(=O)c1noc(-c2ccc([N+](=O)[O-])cc2)c1CNc1ccccc1 [2 aa] :: 270

###

EXPERIMENT NOTES: Cytotoxicity assay in mammalian cells (MTT), fibroblasts, 72 h
Assay type: cell-based
MEASUREMENT CONTEXT: mouse, L929 fibroblast cells, pH 7.2; 50 % inhibition of fibroblast growth, 72 h, MTT
MEASURED PARAMETER: CC50 at 72 h (µM)

COc1ccc(NCc2c(C(=O)NN)noc2-c2ccccc2)cc1 :: 190
O=C(N/N=C/c1ccccc1)c1noc(-c2ccc(F)cc2)c1CNc1ccccc1 :: 814
O=C(N/N=C/c1ccc(-c2cccs2)s1)c1noc(-c2ccc([N+](=O)[O-])cc2)c1CNc1ccc(Cl)cc1 :: 116
O=C(N/N=C/c1ccccc1)c1noc(-c2ccc(F)cc2)c1CNc1ccc(Cl)cc1 :: 381
COc1ccc(NCc2c(C(=O)N/N=C/c3ccccn3)noc2-c2ccccc2)cc1 :: 184
NNC(=O)c1noc(-c2ccc([N+](=O)[O-])cc2)c1CNc1ccc(Cl)cc1 :: 98.3
O=C(N/N=C/c1ccccc1)c1noc(-c2ccc(Cl)cc2)c1CNc1ccccc1 :: 266
COc1ccc(NCc2c(C(=O)N/N=C/c3ccccc3)noc2-c2ccc(Cl)cc2)cc1 :: 296
COc1ccc(NCc2c(C(=O)N/N=C/c3ccccc3)noc2-c2ccc([N+](=O)[O-])cc2)cc1 :: 241
O=C(N/N=C/c1ccccn1)c1noc(-c2ccc(Cl)cc2)c1CNc1ccc(Cl)cc1 :: 203
O=C(N/N=C/c1ccccn1)c1noc(-c2ccccc2)c1CNc1ccccc1 :: 330
COc1ccc(NCc2c(C(=O)N/N=C/c3ccccc3)noc2-c2ccccc2)cc1 :: 210
COc1ccc(NCc2c(C(=O)NN)noc2-c2ccc(F)cc2)cc1 :: 166
O=C(N/N=C/c1ccc(-c2cccs2)s1)c1noc(-c2ccc(Cl)cc2)c1CNc1ccc(Cl)cc1 :: 310
O=C(N/N=C/c1ccc(-c2cccs2)s1)c1noc(-c2ccc([N+](=O)[O-])cc2)c1CNc1ccccc1 :: 287
COc1ccc(NCc2c(C(=O)N/N=C/c3ccc(-c4cccs4)s3)noc2-c2ccc(F)cc2)cc1 :: 316
COc1ccc(NCc2c(C(=O)N/N=C/c3ccccc3)noc2-c2ccc(F)cc2)cc1 :: 308
CCOC(=O)c1noc(-c2ccc(Cl)cc2)c1CNc1ccc(Cl)cc1 :: 99.5
